target: Luciferin 4-monooxygenase (Photinus pyralis); assay: qHTS profiling assay for firefly luciferase inhibitor/activator using purifed enzyme and Km concentrations of substrates (counterscreen for miR-21 project); conditions: purified FLuc, luminescence inhibition; series mostly up to 57.5 µM; also: nearly all actives have a fitted effect of over 55% in size
Hit rate of the full screen: of about 360,000 compounds, about 25,000 (6.9%) were called active. Not shown: some 9% with an inconclusive outcome. Calls follow the shape of the dose curve; as a rule, active = well fitted inhibition curve with a large enough effect; inconclusive = small, poorly fitted or top-dose-only effect; inactive = flat fitted curve, though single readings scatter. The sample holds actives, similar compounds and a random draw of the others, so the mix is not that of the screen.
Classes used: active, inactive

compound=O=C(CCNC(=O)c1ccc([N+](=O)[O-])cc1)NC1CCCCC1 class=inactive
compound=O=C(NCCCO)C(=O)Nc1c2c(nn1-c1ccccc1)CSC2 class=inactive
compound=COc1ccc(NC(=O)c2ccccc2CC[N+](=O)[O-])cc1 class=inactive
compound=CC(C)N(Cc1nnc(-c2ccccc2Br)o1)C(=O)c1cc(Cl)nc2ccccc12 class=inactive
compound="Cc1cccn2c(=O)c3cc(C(=O)NC(C)c4ccccc4)c(=N)n(CCCO)c3nc12 (stereo unspecified)" class=inactive
compound=CCC(=O)c1ccc(OC(=O)/C=C/c2cc(OC)c(OC)c(OC)c2)cc1 class=inactive
compound=O=C(COc1ccc2oc3c(c2c1)CCCC3)Nc1ccccn1 class=active
compound=Cc1ccc(-c2nn(-c3ccccc3)cc2C(=O)Nc2cccc(S(=O)(=O)N3CCOCC3)c2)cc1 class=inactive
compound=O=C(CNCc1ccc(Cl)cc1)Nc1cccc(C(=O)O)c1 class=inactive
compound=CCOc1ccc(N/C=C/C(=O)c2cc(OC)c(OC)c(OC)c2)cc1 class=active
compound=NC1=NC(=O)S/C1=C\c1ccc(O)cc1 class=inactive
compound=CCOc1ccc(N=C2NC(=O)S/C2=C\c2ccc(O)cc2)cc1 class=inactive
compound="COC(=O)C1C(=O)c2c([nH]c(C(=O)OCCSC)c2C)CC1C (stereo unspecified)" class=active
compound=COc1cccc(C(=O)NC(=O)Nc2ccc(-c3cc(C(F)(F)F)nn3-c3ccccc3)cc2)c1 class=inactive
compound=O=C(CSCc1cnn(-c2ccccc2)c1-n1cccc1)NCc1ccccc1Br class=inactive
compound=Cc1ccccc1NC(=O)Cn1cc(C(=O)c2cccs2)c2ccccc21 class=inactive
compound=Cc1cc(NC(=O)CCS(=O)(=O)c2ccc(F)cc2)no1 class=inactive
compound=COC(=O)c1cn(CC(=O)NCc2cccs2)c2ccccc12 class=inactive
compound=N#Cc1ccc(C2=CC(=O)C[C@H](c3ccc(Cl)cc3)C2)cc1 class=inactive
compound=O=C(O)c1ccc(NC(=O)c2cn(-c3ccccc3)nc2-c2ccc(Cl)cc2)cc1 class=active
compound=CCOc1ccc(OCC(=O)Nc2c3c(nn2C(C)(C)C)CS(=O)(=O)C3)cc1 class=inactive
